Tested on: mNG-SARS-CoV-2
Test: microbe, parasite or virus in culture
Type: cell-based
pEC50: −log10 of the molar value.
Items are presented alongside their recorded pEC50.
Reported Endpoint: pEC50

[
  {
    "Compound": "CC(=O)O[C@H]1CC[C@]2(C)[C@H]3CC[C@]4(C)Oc5oc(C)cc(=O)c5C[C@H]4[C@]3(C)CC[C@H]2C1(C)C",
    "Target Entity": "mNG-SARS-CoV-2",
    "Reported Endpoint": "pEC50",
    "Experimental Result": 5.38
  },
  {
    "Compound": "CC(C)=CCc1cc([C@@H]2CC(=O)c3c(O)cc(O)c(CC=C(C)C)c3O2)cc(CC=C(C)C)c1O [5-hydroxysophoranone]",
    "Target Entity": "mNG-SARS-CoV-2",
    "Reported Endpoint": "pEC50",
    "Experimental Result": 4.69
  },
  {
    "Compound": "CC(C)C[C@H](NC(=O)OCc1ccccc1)C(=O)N[C@@H](CC1CCNC1=O)C(O)S(=O)(=O)O (some centres unmarked)",
    "Target Entity": "mNG-SARS-CoV-2",
    "Reported Endpoint": "pEC50",
    "Experimental Result": 6.32
  },
  {
    "Compound": "COc1cc(-c2cc3c(c(=O)o2)C[C@]2(O)[C@@]4(C)C(=O)C=CC(C)(C)[C@]4(O)CC[C@@]2(C)O3)cc(OC)c1OC",
    "Target Entity": "mNG-SARS-CoV-2",
    "Reported Endpoint": "pEC50",
    "Experimental Result": 5.18
  },
  {
    "Compound": "C[C@@H]1CC[C@@]2(OC1)O[C@H]1C[C@H]3[C@@H]4CC[C@@H]5CC(=O)CC[C@]5(C)[C@H]4CC(=O)[C@]3(C)[C@@]1(O)[C@@H]2C [asparacemosone B]",
    "Target Entity": "mNG-SARS-CoV-2",
    "Reported Endpoint": "pEC50",
    "Experimental Result": 5.39
  },
  {
    "Compound": "CC(=O)O[C@H]1CC[C@]2(C)[C@H]3CC[C@]4(C)Oc5cc(C)oc(=O)c5C[C@H]4[C@]3(C)CC[C@H]2C1(C)C",
    "Target Entity": "mNG-SARS-CoV-2",
    "Reported Endpoint": "pEC50",
    "Experimental Result": 5.35
  },
  {
    "Compound": "C=C1C[C@H]2[C@@](C)(C(=O)C(O)=C3C(C)(C)C(=O)CC[C@@]32C)[C@@H]2C(=O)O[C@@](C)(C(=O)OC)C(=O)[C@@]12C",
    "Target Entity": "mNG-SARS-CoV-2",
    "Reported Endpoint": "pEC50",
    "Experimental Result": 5.14
  },
  {
    "Compound": "CC(C)=CCC[C@](C)(O)[C@H]1CC[C@]2(C)[C@@H]1CC[C@@H]1[C@@]3(C)CCC(=O)C(C)(C)[C@@H]3CC[C@]12C",
    "Target Entity": "mNG-SARS-CoV-2",
    "Reported Endpoint": "pEC50",
    "Experimental Result": 5.52
  },
  {
    "Compound": "C=C1C[C@@]23CC[C@H]4[C@@](C)(CCC[C@@]4(C)C(=O)O)[C@@H]2CC[C@@H]1C3",
    "Target Entity": "mNG-SARS-CoV-2",
    "Reported Endpoint": "pEC50",
    "Experimental Result": 4.82
  },
  {
    "Compound": "COc1c2ccoc2c(OCC=C(C)C)c2oc(=O)ccc12",
    "Target Entity": "mNG-SARS-CoV-2",
    "Reported Endpoint": "pEC50",
    "Experimental Result": 5.20
  },
  {
    "Compound": "C=CC(C)(C)c1[nH]c2ccccc2c1-c1c(O)c(OC)c2c(c1OC)O[C@H]1Nc3ccccc3[C@@]21O",
    "Target Entity": "mNG-SARS-CoV-2",
    "Reported Endpoint": "pEC50",
    "Experimental Result": 5.26
  },
  {
    "Compound": "CC(C)=CCC/C(C)=C/Cc1c(O)cc2oc3c(O)cccc3c(=O)c2c1O",
    "Target Entity": "mNG-SARS-CoV-2",
    "Reported Endpoint": "pEC50",
    "Experimental Result": 4.55
  },
  {
    "Compound": "Cc1cc(O)c(C=O)c2c1C(=O)Oc1c(cc3c(c1C)C(=O)CC(C)(C)O3)O2",
    "Target Entity": "mNG-SARS-CoV-2",
    "Reported Endpoint": "pEC50",
    "Experimental Result": 5.17
  },
  {
    "Compound": "COc1cc([C@H]2OC[C@]3(O)[C@@H](c4ccc(O)c(OC)c4)OC[C@H]23)ccc1O [8-hydroxypinoresinol]",
    "Target Entity": "mNG-SARS-CoV-2",
    "Reported Endpoint": "pEC50",
    "Experimental Result": 4.61
  }
]
